- Tested on: CDK6-CYCLIND3 (Homo sapiens, UniProt Q00534)
- Sequence (Q00534 whole entry): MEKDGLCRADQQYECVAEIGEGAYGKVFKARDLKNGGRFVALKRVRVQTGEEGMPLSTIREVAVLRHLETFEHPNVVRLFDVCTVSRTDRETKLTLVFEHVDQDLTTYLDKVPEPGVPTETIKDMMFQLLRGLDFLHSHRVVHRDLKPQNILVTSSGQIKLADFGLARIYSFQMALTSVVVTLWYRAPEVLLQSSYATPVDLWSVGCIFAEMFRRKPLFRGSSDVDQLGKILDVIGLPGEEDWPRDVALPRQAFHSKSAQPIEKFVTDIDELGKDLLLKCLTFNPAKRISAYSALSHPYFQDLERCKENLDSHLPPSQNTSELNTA
- Sequence (P30281 whole entry partner): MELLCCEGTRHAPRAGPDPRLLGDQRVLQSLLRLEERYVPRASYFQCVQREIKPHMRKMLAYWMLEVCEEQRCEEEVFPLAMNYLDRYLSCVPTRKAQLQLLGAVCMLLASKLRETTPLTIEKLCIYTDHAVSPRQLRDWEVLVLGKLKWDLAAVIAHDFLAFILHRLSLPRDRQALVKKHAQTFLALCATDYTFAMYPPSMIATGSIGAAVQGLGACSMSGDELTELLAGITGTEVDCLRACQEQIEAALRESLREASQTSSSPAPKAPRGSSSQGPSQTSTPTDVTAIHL
- Procedure details: Microfluidic LabChip inhibition assay, CDK6-CYCLIND3
- Type: biochemical
- Conditions used: Table 2; ATP 300 μM, 25° C.; read-out: CDK6 IC50
pIC50: −log10 of the molar value.
Measurement label: pIC50

[I] CN(C)[C@H]1CCN(c2ccc(Nc3ncc4cc(C#N)c(=O)n(C5CCCC5)c4n3)cc2F)C1
[II] CCN1CCN(Cc2ccc(Nc3ncc4cc(C#N)c(=O)n(C5CCCC5)c4n3)nc2)CC1
**Q:** Lower value for measured pIC50? Options: I , II Write down the label of the entry you select.
**A:** II
(II: 7.03, I: 8.01)

Source: patent US20220220103A1
